Dear all, this message contains pIC50 results, target or system Epidermal growth factor receptor (Homo sapiens, UniProt P00533).
pIC50: −log10 of the molar value.
recorded.endpoint: pIC50

• CC1(C)CC(C(=O)Nc2ccc3ncnc(Nc4cccc(Cl)c4)c3c2)CC(C)(C)N1[O] = 7.19
• COc1cc2ncc(C(=O)NC3CC(C)(C)N([O])C(C)(C)C3)c(Nc3cccc(Cl)c3)c2cc1OC = 6.21
• CC1(C)CC(C(=O)Nc2ccc3ncnc(Nc4ccc(F)c(Cl)c4)c3c2)CC(C)(C)N1[O] = 7.82
• COc1cc2ncc(C(=O)NC3CC(C)(C)N([O])C(C)(C)C3)c(Nc3ccc(F)c(Cl)c3)c2cc1OC = 6.37
• COc1cc2ncc(C(=O)NC3CC(C)(C)N([O])C(C)(C)C3)c(Nc3cccc(Br)c3)c2cc1OC = 6.47
• COc1cc2ncc(C(=O)O)c(Nc3cccc(Br)c3)c2cc1OC = 5.06
• CC1(C)CC(C(=O)Nc2ccc3ncnc(Nc4cccc(Br)c4)c3c2)CC(C)(C)N1[O] = 7.51

----------
Molecular target: Epidermal growth factor receptor (Homo sapiens)
Conditions: at 10 µM
recorded.endpoint: inhibition (%)

* COc1cc2ncc(C(=O)NC3CC(C)(C)N([O])C(C)(C)C3)c(Nc3cccc(Br)c3)c2cc1OC | 90.3
* Nc1ccc2ncnc(Nc3cccc(Cl)c3)c2c1 | 98.9
* COc1cc2ncc(C(=O)O)c(Nc3cccc(Br)c3)c2cc1OC | 60.1
* COc1cc2ncc(C(=O)NC3CC(C)(C)N([O])C(C)(C)C3)c(Nc3cccc(Cl)c3)c2cc1OC | 88.3
* CC1(C)CC(C(=O)Nc2ccc3ncnc(Nc4ccc(F)c(Cl)c4)c3c2)CC(C)(C)N1[O] | 99.5

----------
Molecular target: Epidermal growth factor receptor (Homo sapiens, UniProt P00533)
Sequence (P00533 whole entry): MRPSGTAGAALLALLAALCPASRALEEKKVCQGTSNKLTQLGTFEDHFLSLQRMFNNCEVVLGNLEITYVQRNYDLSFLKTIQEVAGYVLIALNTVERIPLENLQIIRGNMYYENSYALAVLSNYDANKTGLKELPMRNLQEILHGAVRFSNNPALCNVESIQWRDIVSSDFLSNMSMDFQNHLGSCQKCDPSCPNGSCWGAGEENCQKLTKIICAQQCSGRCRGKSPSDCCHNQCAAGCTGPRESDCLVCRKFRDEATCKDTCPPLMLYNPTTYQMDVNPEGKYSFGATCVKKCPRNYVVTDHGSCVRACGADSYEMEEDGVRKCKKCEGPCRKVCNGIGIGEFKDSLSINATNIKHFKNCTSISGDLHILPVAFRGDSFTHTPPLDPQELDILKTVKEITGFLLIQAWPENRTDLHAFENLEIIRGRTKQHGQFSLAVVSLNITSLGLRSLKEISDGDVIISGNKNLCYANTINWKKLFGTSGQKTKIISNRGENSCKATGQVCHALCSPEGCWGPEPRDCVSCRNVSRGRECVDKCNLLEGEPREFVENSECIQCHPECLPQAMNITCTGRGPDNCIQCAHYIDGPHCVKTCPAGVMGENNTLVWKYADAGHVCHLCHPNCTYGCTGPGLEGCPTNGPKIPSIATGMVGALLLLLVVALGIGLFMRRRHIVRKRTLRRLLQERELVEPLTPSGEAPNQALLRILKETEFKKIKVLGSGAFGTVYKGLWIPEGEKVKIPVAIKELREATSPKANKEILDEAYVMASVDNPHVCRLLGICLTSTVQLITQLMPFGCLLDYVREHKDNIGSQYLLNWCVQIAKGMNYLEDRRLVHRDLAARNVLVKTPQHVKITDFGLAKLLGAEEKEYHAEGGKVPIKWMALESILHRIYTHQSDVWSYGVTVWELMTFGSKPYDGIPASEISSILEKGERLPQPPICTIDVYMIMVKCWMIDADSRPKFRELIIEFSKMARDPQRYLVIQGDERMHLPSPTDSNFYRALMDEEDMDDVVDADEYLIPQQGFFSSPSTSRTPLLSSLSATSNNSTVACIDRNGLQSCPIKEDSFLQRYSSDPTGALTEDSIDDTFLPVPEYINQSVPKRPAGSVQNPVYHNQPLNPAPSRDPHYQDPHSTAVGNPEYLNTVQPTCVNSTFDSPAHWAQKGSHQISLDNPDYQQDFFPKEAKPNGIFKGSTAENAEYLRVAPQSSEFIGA
Conditions: at 10 µM
Quick reference: inhibition of the listed items.
recorded.endpoint: inhibition

• COc1cc2ncc(C(=O)O)c(Nc3ccc(F)c(Cl)c3)c2cc1OC = 66.5%
• Nc1ccc2ncnc(Nc3ccc(F)c(Cl)c3)c2c1 = 99.5%
• CC1(C)CC(C(=O)Nc2ccc3ncnc(Nc4cccc(Br)c4)c3c2)CC(C)(C)N1[O] = 99.4%
• COc1cc2ncc(C(=O)NC3CC(C)(C)N([O])C(C)(C)C3)c(Nc3ccc(F)c(Cl)c3)c2cc1OC = 92.8%
• CC1(C)CC(C(=O)Nc2ccc3ncnc(Nc4cccc(Cl)c4)c3c2)CC(C)(C)N1[O] = 99.4%
